measurement-target: D(1A) dopamine receptor (Rattus norvegicus) (UniProt P18901)
Sequence (P18901 whole entry): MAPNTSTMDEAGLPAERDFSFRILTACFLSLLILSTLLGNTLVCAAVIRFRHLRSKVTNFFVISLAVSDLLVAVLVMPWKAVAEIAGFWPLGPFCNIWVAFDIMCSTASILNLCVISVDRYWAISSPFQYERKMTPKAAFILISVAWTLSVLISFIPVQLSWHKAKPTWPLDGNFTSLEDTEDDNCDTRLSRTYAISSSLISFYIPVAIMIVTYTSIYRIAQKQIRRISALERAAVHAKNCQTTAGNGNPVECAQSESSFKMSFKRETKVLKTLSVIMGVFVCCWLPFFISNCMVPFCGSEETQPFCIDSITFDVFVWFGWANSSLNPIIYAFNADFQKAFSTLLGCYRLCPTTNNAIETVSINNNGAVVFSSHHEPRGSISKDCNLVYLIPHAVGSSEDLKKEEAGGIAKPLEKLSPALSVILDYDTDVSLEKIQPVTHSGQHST
assay-protocol: The ability of a compound to stimulate dopamine-sensitive rat caudate adenylate cyclase or to antagonise the stimulant of dopamine was used as measure of D1 efficacy
Assay type: functional
Please use true (1) for ED50 under 2 µM and false (0) for everything else, ties included.

Worked set:
NCCc1ccc(O)c(O)c1 ... false (0)
NC1CCc2cc(O)c(O)cc2C1 (stereo not given) ... false (0)
NC1CCc2c(cc(O)c(O)c2F)C1 (stereo not given) ... true (1)
NC1CCc2cc(O)c(O)c(F)c2C1 (stereo not given) ... false (0)

Lab note: next molecule to report on.
stdin: Find out if reported ED50 for NC1CCc2cc(O)c(O)c(Cl)c2C1 (stereo not given) is less than 2 µM
stdout: true (1)

---

measurement-target: D(1A) dopamine receptor (Rattus norvegicus)
assay-protocol: Affinity for Dopamine receptor D1 binding sites was evaluated in a test involving displacement of [3H]- fenoldopam in rat striatum
Assay type: tissue-based
Recorded K Bind for the following molecules
Numbers only here, please. The scale is µM.

Worked set:
NC1CCc2c(cc(O)c(O)c2F)C1 (configuration not stated) ... 0.074
CN(C)C1CCc2cc(Cl)c(O)cc2C1 (configuration not stated) ... 2.63
CN(C)C1CCc2cc(O)c(Cl)cc2C1 (configuration not stated) ... 2.3
NC1CCc2cc(Cl)c(O)cc2C1 (configuration not stated) ... 1.44
NC1CCc2cc(O)c(O)cc2C1 (configuration not stated) ... 0.07

stdin: Would you mind telling me what K Bind value was observed for CN(C)C1CCc2c(ccc(O)c2Cl)C1 (configuration not stated) ?
stdout: 5.95

---

measurement-target: D(1A) dopamine receptor (Rattus norvegicus) (UniProt P18901)
assay-protocol: Affinity for Dopamine receptor D1 binding sites was evaluated in a test involving displacement of [3H]- fenoldopam in rat striatum
Format: tissue-based
Recorded log10(K Bind) for the following compounds
// units: µM (pre-log); metric: K Bind; scale: log10

Worked set:
NC1CCc2cc(O)c(O)c(F)c2C1 (configuration not stated) ... -1.21
CCCN(CCC)C1CCc2cc(F)c(O)cc2C1 (configuration not stated) ... 0.24

stdin: Which measured log10(K Bind) belongs to NC1CCc2cc(F)c(O)cc2C1 (configuration not stated) , tested on D(1A) dopamine receptor (Rattus norvegicus) (UniProt P18901)?
stdout: -0.43

stdin: Which measured log10(K Bind) belongs to NC1CCc2c(cc(O)c(O)c2Cl)C1 (configuration not stated) , tested on D(1A) dopamine receptor (Rattus norvegicus) (UniProt P18901)?
stdout: -0.08

stdin: Which measured log10(K Bind) belongs to NC1CCc2cc(O)c(Cl)cc2C1 (configuration not stated) , tested on D(1A) dopamine receptor (Rattus norvegicus) (UniProt P18901)?
stdout: 0.29

---

measurement-target: D(2) dopamine receptor (Bos taurus) (UniProt P20288)
Sequence (P20288 whole entry): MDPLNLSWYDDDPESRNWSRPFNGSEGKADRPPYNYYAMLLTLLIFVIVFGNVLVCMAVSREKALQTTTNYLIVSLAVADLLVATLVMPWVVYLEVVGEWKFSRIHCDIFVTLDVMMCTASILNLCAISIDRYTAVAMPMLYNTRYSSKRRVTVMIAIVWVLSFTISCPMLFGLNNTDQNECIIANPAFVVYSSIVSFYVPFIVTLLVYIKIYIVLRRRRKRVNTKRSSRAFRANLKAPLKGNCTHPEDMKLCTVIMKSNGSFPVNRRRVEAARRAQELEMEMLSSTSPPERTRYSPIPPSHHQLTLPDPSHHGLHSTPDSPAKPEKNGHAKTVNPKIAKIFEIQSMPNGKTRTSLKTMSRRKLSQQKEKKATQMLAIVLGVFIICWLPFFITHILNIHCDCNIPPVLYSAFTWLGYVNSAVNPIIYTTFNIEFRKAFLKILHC
assay-protocol: Affinity for Dopamine receptor D2 was evaluated from the ability to displace [3H]spiroperidol from homogenized bovine pituitary
Recorded K Bind for the following compounds

NC1CCc2cc(O)c(Cl)cc2C1 (configuration not stated) ... 4.47 µM
CCCN(CCC)C1CCc2cc(O)c(Cl)cc2C1 (configuration not stated) ... 0.9 µM
CCCN(CCC)C1CCc2cc(Cl)c(O)cc2C1 (configuration not stated) ... 1.63 µM

Note: attention shifts to another entry.
stdin: Would you mind telling me what K Bind value was observed for NC1CCc2cc(O)c(O)cc2C1 (configuration not stated) ?
stdout: 0.21 µM
